Data provenance: paper PMC10397247

study_target: T1, 4H3102-AA
T1 chain: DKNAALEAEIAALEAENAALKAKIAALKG
experimental_details: two-hybrid library CCmax;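 further: natural log of median RNA to DNA barcode read ratio; higher means stronger binding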
condition_context: mean of both orientations
Note to self: interaction score under 0.4 means True, ties and anything higher get False.

Below, 6 binders whose answers are already recorded.
DKIAALKAKNAALKAKNAALKAEIAALKG [4H3066-AA] = True
DKIAALKAKNAALEAKIAALKAKNAALEG [4H2991-AA] = True
DEIAALEAENAALEAKNAALKAKIAALEG [4H189-AA] = True
DKIAALKAKNAALEAEIAALEAENAALKG [4H2948-AA] = False
DKIAALKAENAALEAKNAALEAKIAALKG [4H2742-AA] = True
DKIAALKAKNAALKAENAALEAKIAALEG [4H3029-AA] = True

Now for a further binder.
Input DKIAALEAENAALKAKIAALKAENAALEG [4H2283-AA] ; condition: interaction score strictly below 0.4. Does it hold? True
